System: TACE (Homo sapiens)
Construct: made in house; host or cells: mammalian cells or insect cells
Measurement Description: TACE inhibition experiment (in vitro)
Type: biochemical
Quantity Measured: pIC50
Lab note — pIC50 values are minus log10 of concentrations in M.

Some compounds with known pIC50 results, for comparison:
Cc1cc(COc2ccc(S(=O)(=O)CC(C3CCN(C(=O)OC(C)(C)C)CC3)N(O)C=O)cc2)c2ccccc2n1 (stereo not shown) | 7.64
Cc1cc(COc2ccc(S(=O)(=O)CC(CCc3ccccc3C)N(O)C=O)cc2)c2ccccc2n1 (stereo not shown) | 6.57
Cc1cc(COc2ccc(S(=O)(=O)CC(CCc3cccnc3)N(O)C=O)cc2)c2ccccc2n1 (stereo not shown) | 8.40
Cc1cc(COc2ccc(S(=O)(=O)CC(CCC3=CCCC(O)C3)N(O)C=O)cc2)c2ccccc2n1 (stereo not shown) | 8.03
Cc1cc(COc2ccc(S(=O)(=O)CC(C=C3CCN(C(=O)c4ccccc4)CC3)N(O)C=O)cc2)c2ccccc2n1 (stereo not shown) | 8.66

What does the record list as pIC50 for Cc1cc(COc2ccc(S(=O)(=O)CC(N(O)C=O)C3(C)CCN(C(=O)OC(C)(C)C)CC3)cc2)c2ccccc2n1 (stereo not shown) ?
7.36

What does the record list as pIC50 for O=CN(O)C(CC1CCC(=O)CC1)CS(=O)(=O)c1ccc(OCc2ccc3ccccc3n2)cc1 (stereo not shown) ?
6.09

* * *

Measured pIC50 values are reported for all entries that follow.
System: TACE (Homo sapiens, UniProt P78536)
Construct: made in house; host or cells: mammalian cells or insect cells
Sequence (P78536 215-824): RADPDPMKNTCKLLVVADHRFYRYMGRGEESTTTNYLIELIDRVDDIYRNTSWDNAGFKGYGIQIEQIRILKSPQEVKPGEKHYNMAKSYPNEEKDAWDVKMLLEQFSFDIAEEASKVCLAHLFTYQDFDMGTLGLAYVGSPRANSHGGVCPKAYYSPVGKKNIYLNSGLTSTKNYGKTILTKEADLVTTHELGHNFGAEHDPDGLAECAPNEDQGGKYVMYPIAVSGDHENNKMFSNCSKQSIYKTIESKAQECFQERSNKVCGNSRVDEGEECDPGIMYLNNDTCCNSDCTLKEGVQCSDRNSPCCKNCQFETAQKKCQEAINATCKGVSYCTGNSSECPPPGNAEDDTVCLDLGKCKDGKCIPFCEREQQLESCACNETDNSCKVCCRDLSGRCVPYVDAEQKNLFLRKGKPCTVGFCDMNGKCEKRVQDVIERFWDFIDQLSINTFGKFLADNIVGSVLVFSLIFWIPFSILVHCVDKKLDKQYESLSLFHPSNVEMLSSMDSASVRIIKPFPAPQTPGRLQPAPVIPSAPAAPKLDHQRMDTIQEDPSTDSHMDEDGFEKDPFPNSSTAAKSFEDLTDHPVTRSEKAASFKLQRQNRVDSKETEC
Measurement Description: TACE inhibition experiment (in vitro)
Assay type: biochemical
Lab note — pIC50 values are minus log10 of concentrations in M.

What does the record list as pIC50 for CCC(CC)C(=O)N1CCC(CC(CS(=O)(=O)c2ccc(OCc3cc(C)nc4ccccc34)cc2)N(O)C=O)C(C)C1 (stereo not shown) ?
8.29

What does the record list as pIC50 for Cc1cc(Cl)cc(COc2ccc(S(=O)(=O)CC(C=C3CCC4(CC3)OCCO4)N(O)C=O)cc2)c1 (stereo not shown) ?
6.30

What does the record list as pIC50 for COc1ccc(C(=O)N2CCN(CC(CS(=O)(=O)c3ccc(OCc4cc(C)nc5ccccc45)cc3)N(O)C=O)CC2)cc1 (stereo not shown) ?
8.10

What does the record list as pIC50 for Cc1cc(Cl)cc(COc2ccc(S(=O)(=O)CC(C3CCC4(CC3)OCCO4)N(O)C=O)cc2)c1 (stereo not shown) ?
7.10

What does the record list as pIC50 for Cc1cc(COc2ccc(S(=O)(=O)CC(c3cccnc3C)N(O)C=O)cc2)c2ccccc2n1 (stereo not shown) ?
8.52

What does the record list as pIC50 for COCC(=O)N1CCN(CC(CS(=O)(=O)c2ccc(OCc3cc(C)nc4ccccc34)cc2)N(O)C=O)CC1 (stereo not shown) ?
8.00

What does the record list as pIC50 for COCc1cc(COc2ccc(S(=O)(=O)CC(C=C3CCC(=NO)CC3)N(O)C=O)cc2)cc(C)n1 (stereo not shown) ?
6.96

* * *

System: Human MMP13 (Homo sapiens, UniProt P45452)
Construct: purchased Chemicon CC068
Measurement Description: MMP13 inhibition experiment
Assay type: biochemical
Condition Notes: concentration required for 50% inhibition of enzyme activity; read-out: IC50 value MMP-13
Quantity Measured: IC50 (µM)
Enter your answer as a number in µM; do not include the unit.

Some compounds with known IC50 results, for comparison:
CCC(CC)CN1CCC(=CC(CS(=O)(=O)c2ccc(OCc3cc(C)nc4ccccc34)cc2)N(O)C=O)CC1 (centres unmarked) | 20
COCc1cc(COc2ccc(S(=O)(=O)CC(CC3CCC(=NO)CC3)N(O)C=O)cc2)cc(C)n1 (centres unmarked) | 12
CC(=O)N1CCC(CC(CS(=O)(=O)c2ccc(OCc3cc(C)nc4ccccc34)cc2)N(O)C=O)CC1 (centres unmarked) | 13
O=CN(O)C(C=C1CCC(=NO)CC1)CS(=O)(=O)c1ccc(OCc2ccc3ccccc3n2)cc1 (centres unmarked) | 22

Could you now look at the following compound, please?
Which measured IC50 belongs to Cc1cc(Cl)cc(COc2ccc(S(=O)(=O)CC(C=C3CCC4(CC3)OCCO4)N(O)C=O)cc2)c1 (centres unmarked) , tested on Human MMP13 (Homo sapiens, UniProt P45452)?
25
